Where do these numbers come from? They come from the supplement of paper PMC10307832.

This section presents compounds with their documented relative viability values.
# Tested on: NCI-H2023
# Experiment: relative viability (nuclei count vs DMSO), 5 days (fraction); higher = more cells survive
# Run conditions: first compound 0.02 µM

Compound	Assay target	relative viability
CCNC(=O)c1noc(-c2cc(C(C)C)c(O)cc2O)c1-c1ccc(CN2CCOCC2)cc1 [Luminespib] + CS(=O)(=O)CCNCc1ccc(-c2ccc3ncnc(Nc4ccc(OCc5cccc(F)c5)c(Cl)c4)c3c2)o1 [Lapatinib] (partner 2 µM)	NCI-H2023	0.124
CN1CCN(CCOc2cc(OC3CCOCC3)c3c(Nc4c(Cl)ccc5c4OCO5)ncnc3c2)CC1 [Saracatinib] + Cc1nc(Nc2ncc(C(=O)Nc3c(C)cccc3Cl)s2)cc(N2CCN(CCO)CC2)n1 [Dasatinib] (partner 0.075 µM)	NCI-H2023	0.664
CN1CCN(CCOc2cc(OC3CCOCC3)c3c(Nc4c(Cl)ccc5c4OCO5)ncnc3c2)CC1 [Saracatinib] + O=C(c1cc(Cc2n[nH]c(=O)c3ccccc23)ccc1F)N1CCN(C(=O)C2CC2)CC1 [Olaparib] (partner 8 µM)	NCI-H2023	0.503
CCNC(=O)c1noc(-c2cc(C(C)C)c(O)cc2O)c1-c1ccc(CN2CCOCC2)cc1 [Luminespib] + CC1(C)CCC(c2ccc(Cl)cc2)=C(CN2CCN(c3ccc(C(=O)NS(=O)(=O)c4ccc(N[C@H](CCN5CCOCC5)CSc5ccccc5)c(S(=O)(=O)C(F)(F)F)c4)cc3)CC2)C1 [Navitoclax] (partner 0.5 µM)	NCI-H2023	0.99
CN1CCN(CCOc2cc(OC3CCOCC3)c3c(Nc4c(Cl)ccc5c4OCO5)ncnc3c2)CC1 [Saracatinib] + Nc1ncn([C@H]2C[C@H](O)[C@@H](CO)O2)c(=O)n1 [Decitabine] (partner 2 µM)	NCI-H2023	0.245
CCNC(=O)c1noc(-c2cc(C(C)C)c(O)cc2O)c1-c1ccc(CN2CCOCC2)cc1 [Luminespib] + CC(=O)Nc1cccc(-n2c(=O)n(C3CC3)c(=O)c3c(Nc4ccc(I)cc4F)n(C)c(=O)c(C)c32)c1 [Trametinib] (partner 0.02 µM)	NCI-H2023	0.39
CN1CCN(CCOc2cc(OC3CCOCC3)c3c(Nc4c(Cl)ccc5c4OCO5)ncnc3c2)CC1 [Saracatinib] + COc1cccc2cc(-c3nc([C@H]4CC[C@H](C(=O)O)CC4)n4ncnc(N)c34)[nH]c12 [OSI-027] (partner 0.5 µM)	NCI-H2023	0.473
CCNC(=O)c1noc(-c2cc(C(C)C)c(O)cc2O)c1-c1ccc(CN2CCOCC2)cc1 [Luminespib] + C[C@]1(O)C[C@@H](c2nc(-c3ccc4ccc(-c5ccccc5)nc4c3)c3c(N)nccn32)C1 [Linsitinib] (partner 1 µM)	NCI-H2023	0.732
